Origin of the recorded values: paper PMC5193077

# Assayed system: human D1 receptor (Homo sapiens, UniProt P21728)
# Sequence (P21728 whole entry): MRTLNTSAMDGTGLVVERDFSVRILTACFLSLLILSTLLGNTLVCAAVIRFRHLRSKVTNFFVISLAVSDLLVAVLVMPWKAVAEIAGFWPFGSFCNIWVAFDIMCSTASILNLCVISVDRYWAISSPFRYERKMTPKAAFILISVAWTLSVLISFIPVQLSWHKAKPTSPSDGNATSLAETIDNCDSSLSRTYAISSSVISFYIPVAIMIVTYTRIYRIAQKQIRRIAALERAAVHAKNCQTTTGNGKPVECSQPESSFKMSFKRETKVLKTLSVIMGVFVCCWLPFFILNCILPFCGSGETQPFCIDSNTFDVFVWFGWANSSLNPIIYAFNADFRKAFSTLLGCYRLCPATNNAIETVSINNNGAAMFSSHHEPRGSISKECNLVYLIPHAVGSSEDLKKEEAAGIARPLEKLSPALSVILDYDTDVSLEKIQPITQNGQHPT
# Assay notes: cAMP response in HEK293 cells stably expressing the human D1 receptor
# Type: cell-based
# Test conditions: without dopamine; hD1 HEK293; read-out: EC50, cAMP, agonist mode
Property label: EC50 (nM)
Lab book: enter the figure in nM, no units written.

# lookup: `C[C@H]1c2cccc(C(C)(C)O)c2C[C@H](CO)N1C(=O)Cc1c(Cl)cccc1Cl` on human D1 receptor (Homo sapiens, UniProt P21728), EC50 = 30.4

###

# Assayed system: rat D1 receptor (Rattus norvegicus, UniProt P18901)
# Construct: expressed in transfected cells
# Sequence (P18901 whole entry): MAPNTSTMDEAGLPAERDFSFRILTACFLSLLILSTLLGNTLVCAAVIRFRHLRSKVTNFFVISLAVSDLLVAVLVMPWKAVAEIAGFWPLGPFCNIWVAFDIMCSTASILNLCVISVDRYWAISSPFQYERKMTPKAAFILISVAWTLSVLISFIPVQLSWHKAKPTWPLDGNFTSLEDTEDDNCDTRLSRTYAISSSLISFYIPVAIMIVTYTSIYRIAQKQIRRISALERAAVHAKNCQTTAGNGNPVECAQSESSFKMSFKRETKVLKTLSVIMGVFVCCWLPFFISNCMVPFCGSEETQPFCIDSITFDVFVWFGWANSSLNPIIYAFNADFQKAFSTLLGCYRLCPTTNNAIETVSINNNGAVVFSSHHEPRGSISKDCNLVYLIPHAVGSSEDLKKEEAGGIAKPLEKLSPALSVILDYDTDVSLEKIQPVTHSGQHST
# Assay notes: cAMP response in rD1 HEK293 cells
# Assay type: cell-based
# Test conditions: rat D1; 5 nM dopamine (EC20); n = 4; read-out: EC50, cAMP potentiation
Property label: pEC50
On this scale, pEC50 is minus log10 of a concentration expressed in M (mol/L).

// pEC50 lookup, molecule = C[C@H]1c2cccc(C(C)(C)O)c2C[C@H](CO)N1C(=O)Cc1c(Cl)cccc1Cl [DETQ] , result: 6.79

###

# Assay notes: Free (unbound) brain concentrations of DETQ in hD1 mice
# Format: in vivo, mouse
# Test conditions: hD1 knock-in, mouse, brain (unbound); 240 mg/kg oral twice daily; at 6 hours; n = 3; read-out: Unbound brain levels
Property label: concentration at 6 h (nM)
Reply with just the number (in nM).

For record C[C@H]1c2cccc(C(C)(C)O)c2C[C@H](CO)N1C(=O)Cc1c(Cl)cccc1Cl [DETQ] the listed concentration at 6 h is 19.8

###

# Tested on: hD1 mice
# Assay notes: Locomotor activity (LMA) in hD1 mice
# Type: in vivo, mouse
# Test conditions: Mus musculus; four-parameter fit, unbound brain concentration, hD1 mice; read-out: EC50 in LMA versus unbound brain levels
Property label: pEC50
The read-out pEC50 is expressed as -log10 of concentration in moles per litre.

The compound identified as `C[C@H]1c2cccc(C(C)(C)O)c2C[C@H](CO)N1C(=O)Cc1c(Cl)cccc1Cl` registered its pEC50 at 8.04

###

# Assay notes: Free (unbound) brain concentrations of DETQ in hD1 mice
# Format: in vivo, mouse
# Test conditions: hD1 knock-in, mouse, brain (unbound); 240 mg/kg oral twice daily; at 12 hours; n = 3; read-out: Unbound brain levels
Property label: concentration at 12 h (nM)
Numbers only; they are read as nM.

Recorded result, `C[C@H]1c2cccc(C(C)(C)O)c2C[C@H](CO)N1C(=O)Cc1c(Cl)cccc1Cl` , concentration at 12 h: 30.8

###

# Assayed system: human D1 receptor (Homo sapiens, UniProt P21728)
# Assay notes: cAMP potentiation, transiently expressed human D1 receptor in HEK293 cells
# Type: cell-based
# Test conditions: Human D1, transient; 0.7 nM dopamine
Property label: EC50 (nM)
Give the number; nM is assumed, so skip it.

molecule `C[C@H]1c2cccc(C(C)(C)O)c2C[C@H](CO)N1C(=O)Cc1c(Cl)cccc1Cl` , EC50 observed: 11.4

###

# Test system: hD1 mice
# Assay notes: Locomotor activity (LMA) in hD1 mice
# Type: in vivo, mouse
# Test conditions: hD1 mice; DETQ up to 240 mg/kg

| Molecule | Assayed system | Shape of LMA dose-response curve |
| --- | --- | --- |
| Cl.NC[C@@H]1O[C@H](C23CC4CC(CC(C4)C2)C3)Cc2c1ccc(O)c2O [A-77636, reference compound] | hD1 mice | bell-shaped curves |
| Oc1cc2c(cc1O)[C@H]1c3ccccc3CN[C@@H]1CC2 (racemic) [dihydrexidine, reference compound] | hD1 mice | bell-shaped curves |
| C=CCN1CCc2c(cc(O)c(O)c2Cl)C(c2ccccc2)C1 (stereo not shown) | hD1 mice | bell-shaped curves |
